Attribution: patent US11746085B2

# test_name: Dissolution performance test: solubility in 3-ethyl-3-hydroxymethyl oxetane monomer
# Format: physicochemical
# reported_conditions: Table 4; maximum number of grams dissolved in 100 g 3-ethyl-3-hydroxymethyl oxetane monomer at 20° C.
# Description: The solubility in 3-ethyl-3-hydroxymethyl oxetane monomer was tested for Compound A-1 to A-38 and C-1 to C-25, and comparative compounds B-1 and B-2 as well as D-1 and D-2 in the present invention, calculated based on the maximum number of grams dissolved in 100 g solvent at 20° C.
readout_label: Solubility (g)

- entry_smiles: "CCCCC1(CCCC)c2cc([S+](c3ccc(C)c(F)c3)c3ccc(C)c(F)c3)ccc2-c2ccc([S+](c3ccc(C)c(F)c3)c3ccc(C)c(F)c3)cc21"
  Solubility (g): 24.5
- entry_smiles: "Cc1ccc([S+](c2ccc(Sc3ccc([S+](c4ccc(C)c(C#N)c4)c4ccc(C)c(C#N)c4)cc3C)c(C)c2)c2ccc(C)c(C#N)c2)cc1C#N"
  Solubility (g): 24.9
- entry_smiles: "Cc1ccc([S+](c2ccc(Sc3ccc([S+](c4ccc(C)c(C(F)(F)F)c4)c4ccc(C)c(C(F)(F)F)c4)cc3)cc2)c2ccc(C)c(C(F)(F)F)c2)cc1C(F)(F)F"
  Solubility (g): 24.3
